# logP annotations
experiment: method code SF-AS, from DOI: 10.1007/s001289900721, PMID: 9657823
Format: numeric value only, no unit, no commentary.

Known logP results, listed for orientation:
> print(dat)
        smiles.record  value.reported
1  O=Cc1ccc(O)c(Br)c1            1.83
2      O=Cc1cccc(O)c1            1.29

[ask] Fill in the blank: the reported logP of O=Cc1cc(Br)ccc1Br is ____.
[reply] 3.35

[ask] Dear colleague, I am looking for the recorded logP of the following compound: O=Cc1cc(O)cc(Br)c1
[reply] 2.5

[ask] // logP lookup, key: CCOc1ccc(C=O)cc1OC
[reply] 1.63

[ask] What measured logP goes with CC(C)OC(=O)COc1ccc(C=O)cc1 ?
[reply] 1.88

[ask] Which logP value is on record for COc1cc(C=O)cc(OC)c1OC ?
[reply] 1.39

====

test: method code SF, from DOI: 10.1016/j.bmcl.2013.12.011, PMID: 24342238
recorded metric: logP
Answer as a number with no unit attached.

[ask] Reported logP for CN(C)Cc1cc(C=CC(=O)C=C(O)C=Cc2ccc(O)c(N(C)C)c2)ccc1O : what is it?
[reply] 3.48

====

Catalogue of logD values
assay: method code SF-GLC, from DOI: 10.1016/s0022-3565(25)30310-1, PMID: 1181405; conditions: pH 7.4
Answer with a number only.

[ask] Give its logD value. Item: CNC(=O)OC
[reply] -0.06

[ask] Looking for the measured logD of CNC(=O)Oc1cc(C)c(C)c(C)c1 , can you help?
[reply] 2.66

[ask] Request the reported logD associated with CCCOC(=O)NC
[reply] 0.95

====

Below is a list of entries, each paired with its recorded logD value.
assay: method code SF-AS, from M. Kuchar, J. Tomkova, V. Rejholec, & O. Roubinek. (1992). Some problems of the chromatographic evaluation of lipophicity. In Kuchar, M. (Ed.) QSAR in Design of Bioactive Compounds (pp. 65-81). Prous …; conditions: pH 3.4
# answer = number (no unit)

> print(dat)
                                   compound  value.reported
1  CC(CC(=O)O)c1ccc(OCc2ccccc2)cc1 (configuration not stated)            3.58

[ask] Value lookup for logD; key = O=C(O)CCc1ccc(OCc2ccccc2)cc1
[reply] 3.31

====

Quick reference for logP among some molecules
Lab note: jot the number down without any unit.

Recorded logP, per entry:
> print(dat)
                                   molecule  value.reported
1  CC(C)C12CCC(C)(CC1)C1C(=O)N(CCCCN3CCN(c4ccc5ccccc5n4)CC3)C(=O)C12 (centres undefined)            6.59
2  CC(C)C12C=CC(C)(CC1)C1C(=O)N(CCCCN3CCN(c4ccc5ccccc5n4)CC3)C(=O)C12 (centres undefined)             6.3
3  O=C1C2C3C=CC(CC3)C2C(=O)N1CCCCN1CCN(c2ccc3ccccc3n2)CC1 (centres undefined)            3.83

[ask] Fill in the blank: the reported logP of O=C1C2C3CCC(C3)C2C(=O)N1CCCCN1CCN(c2ccc3ccccc3n2)CC1 (centres undefined) is ____.
[reply] 3.64
